meta.source: patent US20250026748A1

# IC50 values compiled below
molecular target: PolQ ATPase enzyme (1-894) (Homo sapiens (Human)); test: Polθ ATPase enzymatic assay (0.5 nM enzyme concentration), ADP-Glo; type: biochemical; settings: average IC50; 0.5 nM PolQ ATPase enzyme (1-894)
Sequence (O75417 1-894): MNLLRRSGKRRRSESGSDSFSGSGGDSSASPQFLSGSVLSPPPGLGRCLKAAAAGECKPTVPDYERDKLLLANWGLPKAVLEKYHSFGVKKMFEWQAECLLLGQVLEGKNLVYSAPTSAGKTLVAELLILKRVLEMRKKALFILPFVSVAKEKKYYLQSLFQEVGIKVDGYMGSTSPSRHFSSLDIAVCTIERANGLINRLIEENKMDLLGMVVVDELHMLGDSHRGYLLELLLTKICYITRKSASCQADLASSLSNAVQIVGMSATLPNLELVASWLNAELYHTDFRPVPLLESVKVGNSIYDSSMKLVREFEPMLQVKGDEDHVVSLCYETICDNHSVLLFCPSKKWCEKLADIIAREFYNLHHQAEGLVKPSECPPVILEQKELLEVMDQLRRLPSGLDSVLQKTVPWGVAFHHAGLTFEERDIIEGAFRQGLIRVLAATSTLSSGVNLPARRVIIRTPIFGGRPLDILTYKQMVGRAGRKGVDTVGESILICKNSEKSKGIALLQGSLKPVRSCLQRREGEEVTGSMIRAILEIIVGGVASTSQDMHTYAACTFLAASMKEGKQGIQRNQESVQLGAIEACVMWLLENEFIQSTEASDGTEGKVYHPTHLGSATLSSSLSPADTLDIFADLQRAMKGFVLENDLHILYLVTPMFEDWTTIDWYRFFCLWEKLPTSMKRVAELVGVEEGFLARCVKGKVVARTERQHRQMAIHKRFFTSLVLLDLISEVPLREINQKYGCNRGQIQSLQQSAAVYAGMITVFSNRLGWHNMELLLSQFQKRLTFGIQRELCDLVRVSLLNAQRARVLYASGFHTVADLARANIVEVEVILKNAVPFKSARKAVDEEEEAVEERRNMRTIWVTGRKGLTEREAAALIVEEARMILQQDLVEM

Here are 5 molecules together with their reported answers.
cpd_smiles=COc1cnc(C(F)F)cc1-c1cc(C#CCN2CCNC2=O)ccc1C(=O)Nc1nnc(C#CC2CC2)s1 result="< 0.25 nM"
cpd_smiles=COc1cnc(C)cc1-c1cnccc1C(=O)Nc1nnc(C#CC2CC2)s1 result="2.5 nM"
cpd_smiles=COc1cnc(C(F)F)cc1-c1cc(N2CCNCC2=O)ccc1C(=O)Nc1nnc(C#CC2CC2)s1 result="< 0.25 nM"
cpd_smiles=COc1cnc(C(F)F)cc1-c1cc(-c2cc(C)n(C)n2)ncc1C(=O)Nc1nnc(C#CC2CC2)s1 result="0.48 nM"
cpd_smiles=COc1cnc(C(F)F)cc1-c1cc(C#CC(C)(C)O)ncc1C(=O)Nc1nnc(C#CC2CC2)s1 result="< 0.25 nM"

State IC50 on PolQ ATPase enzyme (1-894) (Homo sapiens (Human)). Entry: COc1ccc(C(F)(F)F)cc1-c1cc(CC(=O)N(C)C)ncc1C(=O)Nc1nnc(C#CC2CC2)s1
< 0.25 nM

Please respond with reported IC50 (system PolQ ATPase enzyme (1-894) (Homo sapiens (Human))) for COc1cnc(C(F)F)cc1-c1cc(-n2cccc(OC)c2=O)ncc1C(=O)Nc1nnc(C#CC2CC2)s1 .
< 0.25 nM

Fetch value of IC50 on PolQ ATPase enzyme (1-894) (Homo sapiens (Human)) for COc1ccc(C(F)(F)F)cc1-c1cnccc1C(=O)Nc1nnc(C#Cc2cc(C)[nH]n2)s1 .
0.26 nM

Recall the reported IC50 of COc1cnc(C(F)F)cc1-c1cc(-n2ccc(C)cc2=O)ncc1C(=O)Nc1nnc(C#CC2CC2)s1 on PolQ ATPase enzyme (1-894) (Homo sapiens (Human)) and write it down.
< 0.25 nM

State, for PolQ ATPase enzyme (1-894) (Homo sapiens (Human)), measured IC50 of the molecule listed here: COc1cnc(C(F)F)cc1-c1cc(C#N)ccc1C(=O)Nc1nnc(C#CC2CC2)s1
0.45 nM

Look up and report measured IC50 (PolQ ATPase enzyme (1-894) (Homo sapiens (Human))) for the following molecule: COc1ccc(C(F)(F)F)nc1-c1cnccc1C(=O)Nc1nnc(C#CC2CC2)s1
4.1 nM
